# Test system: NCI-H322M;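 further: cell viability assay measuring inhibition of growth of human NCI-H322M cells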
# procedureDetails: cells
# Format: functional, cell-based, Homo sapiens
# details: Homo sapiens, NCI-H322M
# Description: SANGER: Inhibition of human NCI-H322M cell growth in a cell viability assay.
metric: IC50

- compound: "O=S(=O)(O)c1ccc2cc(/N=N/c3cc(S(=O)(=O)O)c4cccnc4c3O)ccc2c1"
  testedSystem: "NCI-H322M"
  reportedResult: "> 16 µM"
- compound: "C=CC(=O)N1CCCC(Nc2nc(Nc3ccc(N(C)C(=O)CC)cc3)nc3[nH]cnc23)C1 (configuration not stated)"
  testedSystem: "NCI-H322M"
  reportedResult: "> 10.2 µM"
- compound: "CC(C)C[C@H](NC(=O)[C@H](Cc1ccccc1)NC(=O)c1cnccn1)B(O)O"
  testedSystem: "NCI-H322M"
  reportedResult: "> 0.02 µM"
- compound: "OC[C@H](Cc1ccccc1)Nc1nc(Oc2ccc3c(c2)CCC3)nc2c1ncn2Cc1ccc(-c2ccccc2)cc1"
  testedSystem: "NCI-H322M"
  reportedResult: "> 10.2 µM"
- compound: "Nc1ccccc1NC(=O)c1ccc(CNC(=O)OCc2cccnc2)cc1"
  testedSystem: "NCI-H322M"
  reportedResult: "> 5 µM"
- compound: "Cc1cc(N2CCOCC2)cc2[nH]c(-c3c(NC[C@@H](O)c4cccc(Cl)c4)cc[nH]c3=O)nc12"
  testedSystem: "NCI-H322M"
  reportedResult: "> 5.12 µM"
- compound: "C[C@@H](Oc1cc(-c2cnn(C3CCNCC3)c2)cnc1N)c1c(Cl)ccc(F)c1Cl"
  testedSystem: "NCI-H322M"
  reportedResult: "> 2 µM"

###

# System: SK-MM-2;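 further: growth inhibition of human SK-MM-2 cells, read out with a cell viability assay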
# procedureDetails: cells
# Assay type: functional, cell-based, Homo sapiens
# details: Homo sapiens, SK-MM-2
# Description: SANGER: Inhibition of human SK-MM-2 cell growth in a cell viability assay.

- compound: "Cc1ccc(C(=O)Nc2ccc(CN3CCN(C)CC3)c(C(F)(F)F)c2)cc1C#Cc1cnc2cccnn12"
  testedSystem: "SK-MM-2"
  IC50: "> 512 nM"
- compound: "NC(=O)c1cccc(-c2cc(Nc3ccc(OC(F)(F)F)cc3)ncn2)c1"
  testedSystem: "SK-MM-2"
  IC50: "> 1280 nM"
- compound: "C/C(=C\\c1csc(C)n1)[C@@H]1C[C@@H]2O[C@]2(C)CCC[C@H](C)[C@H](O)[C@@H](C)C(=O)C(C)(C)[C@@H](O)CC(=O)O1"
  testedSystem: "SK-MM-2"
  IC50: "17.3 nM"
- compound: "COc1ccc(-c2cc3nccn3c(Nc3ncccc3C(N)=O)n2)cc1OC"
  testedSystem: "SK-MM-2"
  IC50: "> 8000 nM"
- compound: "CC(C)C[C@H](NC(=O)[C@H](Cc1ccccc1)NC(=O)c1cnccn1)B(O)O"
  testedSystem: "SK-MM-2"
  IC50: "1.09 nM"
- compound: "C=CC(=O)N1CCCC(Nc2nc(Nc3ccc(N(C)C(=O)CC)cc3)nc3[nH]cnc23)C1 (stereo unspecified)"
  testedSystem: "SK-MM-2"
  IC50: "> 10200 nM"

###

# Test system: no-11
# procedureDetails: cells
# Type: functional, cell-based, Homo sapiens
# details: Homo sapiens
# Description: SANGER: Inhibition of human no-11 cell growth in a cell viability assay.
pIC50: −log10 of the molar value.

- smilesStr: "NC1(c2ccc(-c3nc4ccn5c(=O)[nH]nc5c4cc3-c3ccccc3)cc2)CCC1"
  pIC50: "< 5.40"
- smilesStr: "CC1=C(/C=C/C(C)=C/C=C/C(C)=C/C(=O)O)C(C)(C)CCC1"
  pIC50: "< 5.00"
- smilesStr: "CO[C@@H]1[C@H](N(C)C(=O)c2ccccc2)C[C@H]2O[C@]1(C)n1c3ccccc3c3c4c(c5c6ccccc6n2c5c31)C(=O)NC4"
  pIC50: "< 6.29"
- smilesStr: "Cc1cc(N2CCOCC2)cc2[nH]c(-c3c(NC[C@@H](O)c4cccc(Cl)c4)cc[nH]c3=O)nc12"
  pIC50: "< 5.29"
- smilesStr: "NC(=O)Nc1cc(-c2cccc(F)c2)sc1C(=O)N[C@H]1CCCNC1"
  pIC50: 5.83
- smilesStr: "COC(=O)[C@H](CCSC)NC(=O)c1ccc(NC[C@@H](N)CS)cc1-c1ccccc1"
  pIC50: "< 5.99"
- smilesStr: "CC(C)C[C@H](NC(=O)[C@H](Cc1ccccc1)NC(=O)c1cnccn1)B(O)O"
  pIC50: 8.45
- smilesStr: "CC1(C)CCC(c2ccc(Cl)cc2)=C(CN2CCN(c3ccc(C(=O)NS(=O)(=O)c4ccc(N[C@H](CCN5CCOCC5)CSc5ccccc5)c(S(=O)(=O)C(F)(F)F)c4)cc3)CC2)C1"
  pIC50: "< 5.70"
- smilesStr: "CN(NC(=O)CC(=O)NN(C)C(=S)c1ccccc1)C(=S)c1ccccc1"
  pIC50: 7.63
- smilesStr: "COc1ccc(N(C(=O)Oc2c(C)cccc2C)c2ccnc(Nc3ccc(N4CCN(C)CC4)cc3)n2)c(OC)c1"
  pIC50: "< 5.29"

###

# Test system: PSN1;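 further: suppression of growth of human PSN1 cells, read out by a cell viability assay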
# procedureDetails: cells
# Assay type: functional, cell-based, Homo sapiens
# details: Homo sapiens, PSN1
# Description: SANGER: Inhibition of human PSN1 cell growth in a cell viability assay.
pIC50: −log10 of the molar value.
Each entry below lists one item and its recorded pIC50 value.

- smilesStr: "NC(=O)c1ccc(N(C(N)=O)c2c(F)cccc2F)nc1-c1ccc(F)cc1F"
  pIC50: "< 5.70"
- smilesStr: "C[C@@H](Oc1cc(-c2cnn(C3CCNCC3)c2)cnc1N)c1c(Cl)ccc(F)c1Cl"
  pIC50: "< 5.70"
- smilesStr: "NC(=O)Nc1cc(-c2cccc(F)c2)sc1C(=O)N[C@H]1CCCNC1"
  pIC50: 6.23
- smilesStr: "CC1=C(/C=C/C(C)=C/C=C/C(C)=C/C(=O)O)C(C)(C)CCC1"
  pIC50: "< 5.00"
- smilesStr: "COc1ccc(-c2cc3nccn3c(Nc3ncccc3C(N)=O)n2)cc1OC"
  pIC50: 6.05
- smilesStr: "O=S(=O)(O)c1ccc2cc(/N=N/c3cc(S(=O)(=O)O)c4cccnc4c3O)ccc2c1"
  pIC50: "< 4.80"
- smilesStr: "NC(=O)c1cccc(-c2cc(Nc3ccc(OC(F)(F)F)cc3)ncn2)c1"
  pIC50: "< 5.89"
- smilesStr: "CCCCCCCCCCCC1=C(O)C(=O)C=C(O)C1=O"
  pIC50: 5.27

###

# Tested on: NCI-H1395;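 further: cell viability assay read-out quantifying reduced proliferation of human NCI-H1395 cells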
# procedureDetails: cells
# Assay type: functional, cell-based, Homo sapiens
# details: nci-h1395
# Description: SANGER: Inhibition of human NCI-H1395 cell growth in a cell viability assay.
Where a SMILES comes first, the peptide text is derived from it. The star is where a group is joined. Cbz = O=C(OCc1ccccc1)*
metric: IC50

- compound: "CC(C)C[C@@H](C=O)NC(=O)[C@H](CC(C)C)NC(=O)[C@H](CC(C)C)NC(=O)OCc1ccccc1 [MG-132] (Cbz-Leu-Leu-Leu-aldehyde)"
  metric: "IC50"
  reportedResult: "> 1 µM"

###

Each entry below lists one item and its recorded pIC50 value.
# Tested on: CP50-MEL-B;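 further: growth inhibition of the human cell line, measured with a cell viability read-out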
# procedureDetails: cells
# Type: functional, cell-based
# details: Homo sapiens
# Description: SANGER: Inhibition of human CP50-MEL-B cell growth in a cell viability assay.
pIC50: −log10 of the molar value.
metric: pIC50

- molecule: "CN(NC(=O)CC(=O)NN(C)C(=S)c1ccccc1)C(=S)c1ccccc1 [ELESCLOMOL]"
  metric: "pIC50"
  reportedResult: 8.06
- molecule: "NC(=O)c1ccc(N(C(N)=O)c2c(F)cccc2F)nc1-c1ccc(F)cc1F [VX-702]"
  metric: "pIC50"
  reportedResult: "< 5.70"
- molecule: "Cc1ccc(-n2nc(C(C)(C)C)cc2NC(=O)Nc2ccc(OCCN3CCOCC3)c3ccccc23)cc1 [DORAMAPIMOD]"
  metric: "pIC50"
  reportedResult: "< 5.00"
- molecule: "Cc1ccc(C(=O)Nc2ccc(CN3CCN(C)CC3)c(C(F)(F)F)c2)cc1C#Cc1cnc2cccnn12 [PONATINIB]"
  metric: "pIC50"
  reportedResult: "< 6.29"

###

# System: SAS
# procedureDetails: cells
# Format: functional, cell-based
# details: Homo sapiens
# Description: SANGER: Inhibition of human SAS cell growth in a cell viability assay.
Each entry below lists one item and its recorded IC50 value.

- compound: "COc1ccc(-c2cc3nccn3c(Nc3ncccc3C(N)=O)n2)cc1OC"
  IC50: "> 8 µM"
- compound: "Cc1ccc(-n2nc(C(C)(C)C)cc2NC(=O)Nc2ccc(OCCN3CCOCC3)c3ccccc23)cc1 [DORAMAPIMOD]"
  IC50: "> 10 µM"
- compound: "CS(=O)(=O)N1CCN(Cc2cc3nc(-c4cccc5[nH]ncc45)nc(N4CCOCC4)c3s2)CC1 [PICTILISIB]"
  IC50: "> 4 µM"
- compound: "NC1(c2ccc(-c3nc4ccn5c(=O)[nH]nc5c4cc3-c3ccccc3)cc2)CCC1 [MK-2206]"
  IC50: "> 4 µM"
- compound: "O=C(NCCCNc1nc(Nc2cccc(NC(=O)N3CCCC3)c2)ncc1I)c1cccs1 [BX-795]"
  IC50: "> 5 µM"
